Each recorded value in this set is attributed to patent US4551477A.

assay.details: Acute toxicity (LD50) in mice
test.parameters: mouse, in vivo, ip
Recorded LD50 values for a group of molecules are listed next.

> print(dat)
                                   molecule  assay.readout  reported.value
1  CCOCC(=O)OC(CC(=O)OCC)C[N+](C)(C)C (stereo not shown)           LD50       600 mg/kg

Item COCC(=O)OC(CC(=O)OC(C)C)C[N+](C)(C)C (stereo not shown) has what recorded LD50?
800 mg/kg

Any idea what LD50 was measured for COCC(=O)OC(CC(=O)OC)C[N+](C)(C)C (stereo not shown) ?
1200 mg/kg

Given the molecule CCOCC(=O)OC(CC(=O)OC(C)C)C[N+](C)(C)C (stereo not shown) , what is its reported LD50?
700 mg/kg

* * *

Tested on: mice
assay.details: Antiarrhythmic (antifibrillatory) effect, aconitine-induced arrhythmia in mice
Assay type: in vivo
test.parameters: Mus musculus, iv, read-out: Antifibrillatory activity, % reduction
assay.readout: inhibition in vivo at 50 mg/kg (%)
Expressed in %, but write only the number.

Consider the worked cases shown below.
> print(dat)
                                   compound  target.entity  reported.value
1  CCOC(C)C(=O)OC(CC(=O)OC(C)C)C[N+](C)(C)C (stereo not shown)           mice              70
2  COCC(=O)OC(CC(=O)OC(C)C)C[N+](C)(C)C (stereo not shown)           mice              80
3  CCCOC(=O)CC(C[N+](C)(C)C)OC(=O)COCC (stereo not shown)           mice              75
4  COC(C)C(=O)OC(CC(=O)OC(C)C)C[N+](C)(C)C (stereo not shown)           mice              68

# query: inhibition in vivo at 50 mg/kg of entry CCCOC(=O)CC(C[N+](C)(C)C)OC(=O)COC (stereo not shown)
100

What does the data say about its inhibition in vivo at 50 mg/kg? Entry: CCOCC(=O)OC(CC(=O)OC(C)C)C[N+](C)(C)C (stereo not shown)
70

If you can, please state the reported inhibition in vivo at 50 mg/kg value of CCOC(=O)CC(C[N+](C)(C)C)OC(=O)COC (stereo not shown) .
70

* * *

assay.details: Acute toxicity (LD50) in mice
test.parameters: mouse, in vivo, ip
assay.readout: LD50
Phrase the answer as number then unit, nothing more needed.

Fill in: LD50 of CCCCOC(=O)CC(C[N+](C)(C)C)OC(=O)COC (stereo not drawn) [R = methoxyacetyl; R' = butyl] is ___
550 mg/kg

Which LD50 value belongs to CCOCC(=O)OC(CC(=O)OC)C[N+](C)(C)C (stereo not drawn) [R = ethoxyacetyl; R' = methyl] ?
1100 mg/kg

Return reported LD50; argument: CCCCOC(=O)CC(C[N+](C)(C)C)OC(=O)COCC (stereo not drawn) [R = ethoxyacetyl; R' = butyl]
600 mg/kg
